Each record here notes measured SPOT intensity.
Target: T1, Lsb3, P43603
T1 sequence (P43603 385-451, looked up): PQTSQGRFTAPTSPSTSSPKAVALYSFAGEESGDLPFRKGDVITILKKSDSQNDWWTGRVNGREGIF
Assay: SPOT array
Conditions: median of control spots 406
outcome measure: SPOT intensity

• QPWTDQFEKLEKEVS = 0
• NLKKRPPTAPQRKIS = 45
• ATNVPVAPPPPPASL = 0
• KRRTSLFPWLHKPGI = 0
• TKIRRRPQQPLTDFT = 4
• RRARRQMGIPTISQV = 6
• VYTRTAFQIPGDDKI = 0
• APPLPPTAPPPPSLP = 0
• TKFRISLGLPVGAIM = 28
• NRLRKRLNLPSEISI = 3
• APKREAPKPPANTSP = 0
• LYKRKPILLPDPKPL = 0
• PPPPPPPPPPLPQSL = 0
• PAPPPPPRASRPTPN = 0
• AGKRRLPLVRFKASD = 16
• EEEEEHPPLPARRKS = 683
• TTNRGPPPLPPRANV = 892
• RVTRKRPREPKSTND = 5
• IVNKPLPPLPVAGSS = 2
• DTFLPPPPPPPSNFE = 0
• GRLRPKRIAPWHLIQ = 0
• RTRRRPPPPPIPSTQ = 56
• TTAPALPSLPPPPLL = 0
• EQEEIAPSLPSRNSI = 998
• AAHKTKPSIPPKKVE = 0
• HAPPLPPTAPPPPSL = 0
• PKRRAPPPVPKKPSS = 346
• KDKKTKPTPPPKPSH = 2
• LLIRWLILMPLVGSR = 6
• RNNRPVPPPPPMRTT = 0
